target: SMARCA4 (Homo sapiens); construct: SMARCA4-HiBiT knock-in Hela monoclonal cell (CS3023226); host or cells: HeLa (HiBiT knock-in monoclonal line); assay: SMARCA4 HiBiT degradation assay in HeLa cells; format: cell-based; details: 18 hours incubation, read-out: Dmax % (SM4-HeLa), maximum SMARCA4 degradation within the concentrations tested
The entries below come with measured Dmax values attached.

1) Cc1ncsc1-c1ccc([C@H](C)NC(=O)[C@@H]2C[C@@H](O)CN2C(=O)[C@@H](c2cc(OCCN3CCC(N4CCC5(CC4)CNc4nnc(-c6ccccc6O)cc45)C3)no2)C(C)C)cc1 (stereo partly drawn) [Example 1]    ≤ 50%
2) Cc1ncsc1-c1ccc([C@H](C)NC(=O)[C@@H]2C[C@@H](O)CN2C(=O)[C@@H](c2cc(OCCN3CCC(N4CCC5(CC4)CNc4nnc(-c6ccccc6O)cc4N5)CC3)no2)C(C)C)cc1 [Example 2]    > 75%

Record for Cc1ncsc1-c1ccc([C@H](C)NC(=O)[C@@H]2C[C@@H](O)CN2C(=O)[C@@H](c2cc(OCCN3CCC(CN4CCC5(CC4)CNc4nnc(-c6ccccc6O)cc4N5)CC3)no2)C(C)C)cc1 [Example 8] under target or system SMARCA4 (Homo sapiens): Dmax reported as > 75%

====

molecular target: SMARCA4 (Homo sapiens, UniProt P51532); construct: SMARCA4-HiBiT knock-in Hela monoclonal cell (CS3023226); host or cells: HeLa (HiBiT knock-in monoclonal line); test: SMARCA4 HiBiT degradation assay in HeLa cells; assay type: cell-based; settings: 18 hours incubation, read-out: DC50 (SM4-HeLa), SMARCA4 degradation potency
Sequence (P51532 whole entry): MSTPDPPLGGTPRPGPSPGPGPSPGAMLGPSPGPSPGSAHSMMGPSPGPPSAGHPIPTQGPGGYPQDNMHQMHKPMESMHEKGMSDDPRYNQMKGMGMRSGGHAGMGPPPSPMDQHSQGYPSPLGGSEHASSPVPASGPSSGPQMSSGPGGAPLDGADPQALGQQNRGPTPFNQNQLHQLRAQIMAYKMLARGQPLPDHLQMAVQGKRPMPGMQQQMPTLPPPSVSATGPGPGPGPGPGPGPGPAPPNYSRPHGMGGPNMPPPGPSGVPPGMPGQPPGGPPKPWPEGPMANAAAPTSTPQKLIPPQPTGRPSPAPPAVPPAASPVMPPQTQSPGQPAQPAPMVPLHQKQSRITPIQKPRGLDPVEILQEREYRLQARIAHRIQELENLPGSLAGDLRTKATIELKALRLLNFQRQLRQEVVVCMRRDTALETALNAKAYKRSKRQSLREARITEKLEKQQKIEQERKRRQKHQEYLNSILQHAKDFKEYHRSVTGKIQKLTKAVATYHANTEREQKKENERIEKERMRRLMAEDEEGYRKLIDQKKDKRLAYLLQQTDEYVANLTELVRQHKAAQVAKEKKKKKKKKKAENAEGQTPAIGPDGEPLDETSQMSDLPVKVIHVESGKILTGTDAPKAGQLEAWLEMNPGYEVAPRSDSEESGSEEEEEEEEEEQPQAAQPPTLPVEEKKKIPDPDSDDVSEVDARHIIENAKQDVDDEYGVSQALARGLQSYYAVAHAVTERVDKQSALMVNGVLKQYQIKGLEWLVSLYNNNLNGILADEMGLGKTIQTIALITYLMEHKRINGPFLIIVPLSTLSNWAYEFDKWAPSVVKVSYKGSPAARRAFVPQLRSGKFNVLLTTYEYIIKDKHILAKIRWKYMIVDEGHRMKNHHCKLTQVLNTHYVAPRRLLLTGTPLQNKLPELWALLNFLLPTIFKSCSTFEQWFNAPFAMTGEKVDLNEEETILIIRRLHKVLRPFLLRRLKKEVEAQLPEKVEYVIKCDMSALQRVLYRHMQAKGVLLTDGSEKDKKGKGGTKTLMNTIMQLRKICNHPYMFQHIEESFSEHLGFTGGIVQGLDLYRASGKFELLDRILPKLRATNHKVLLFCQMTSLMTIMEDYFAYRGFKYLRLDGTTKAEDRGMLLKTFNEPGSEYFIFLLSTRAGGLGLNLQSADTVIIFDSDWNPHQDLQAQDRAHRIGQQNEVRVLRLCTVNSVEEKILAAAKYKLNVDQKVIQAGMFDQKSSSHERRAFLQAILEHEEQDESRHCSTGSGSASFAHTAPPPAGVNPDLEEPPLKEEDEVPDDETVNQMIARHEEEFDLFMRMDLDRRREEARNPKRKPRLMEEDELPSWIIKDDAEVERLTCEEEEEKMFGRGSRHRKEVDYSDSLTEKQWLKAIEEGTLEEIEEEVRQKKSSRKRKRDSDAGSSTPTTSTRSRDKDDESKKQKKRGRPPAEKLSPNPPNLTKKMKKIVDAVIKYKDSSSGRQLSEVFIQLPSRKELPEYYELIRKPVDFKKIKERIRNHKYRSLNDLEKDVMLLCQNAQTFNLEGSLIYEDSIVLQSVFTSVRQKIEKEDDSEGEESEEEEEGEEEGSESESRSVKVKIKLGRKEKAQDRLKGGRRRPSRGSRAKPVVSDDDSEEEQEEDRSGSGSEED
MEASURE_NAME: DC50

1. Cc1ncsc1-c1ccc([C@H](C)NC(=O)[C@@H]2C[C@@H](O)CN2C(=O)[C@@H](c2cc(OCCN3CCC(N4CCC5(CC4)CNc4nnc(-c6ccccc6O)cc4N5)CC3)no2)C(C)C)cc1    < 100 nM

Form field DC50, entry Cc1ncsc1-c1ccc([C@H](C)NC(=O)[C@@H]2C[C@@H](O)CN2C(=O)[C@@H](c2cc(OCCN3CCC(N4CCCC5(CNc6nnc(-c7ccccc7O)cc6N5)C4)CC3)no2)C(C)C)cc1 (some centres unmarked) : < 100 nM

Form field DC50, entry Cc1ncsc1-c1ccc([C@H](C)NC(=O)[C@@H]2C[C@@H](O)CN2C(=O)[C@@H](c2cc(OCCN3CCC(N4CCCC5(CNc6nnc(-c7ccccc7O)cc6N5)C4)C3)no2)C(C)C)cc1 (some centres unmarked) : < 100 nM

Form field DC50, entry Cc1ncsc1-c1ccc([C@H](C)NC(=O)[C@@H]2C[C@@H](O)CN2C(=O)[C@@H](c2cc(OCCN3CCC(N4CCC5(CC4)CNc4nnc(-c6ccccc6O)cc4N5)C3)no2)C(C)C)cc1 (some centres unmarked) : 100 to 1000 nM

Form field DC50, entry Cc1ncsc1-c1ccc([C@H](C)NC(=O)[C@@H]2C[C@@H](O)CN2C(=O)[C@@H](c2cc(OCCN3CCC(CN4CCCC5(CNc6nnc(-c7ccccc7O)cc6N5)C4)CC3)no2)C(C)C)cc1 (some centres unmarked) : < 100 nM
